Reference for the values: paper PMC8566451

study target: tubulin (colchicine binding site) (Sus scrofa, UniProt P02550+P02554)
assay explanation: Colchicine binding site competition assay (fluorescence of tubulin-colchicine complex, modified Dixon plot)
measurement setup: modified Dixon plot
property name: Ki (µM)
Answers are plain numbers, in µM.

{"columns": ["molecule", "obs value"],
 "data": [
  ["COc1ccccc1C(=O)/C=C/c1cc2cccc(OC)c2[nH]c1=O [CTR-21]", 1.47]
]}

Here's the next entry for you.
If you can, please state the reported Ki value of CCOc1ccccc1C(=O)/C=C/c1cc2ccccc2[nH]c1=O [CTR-32] .
7.2

---

Reported GI50 values, MDA-MB435.
Answers are plain numbers, in nM.

{"columns": ["compound", "GI50 (nM)"],
 "data": [
  ["COc1ccccc1C(=O)/C=C/c1cc2ccccc2[nH]c1=O", 290]
]}

Look up GI50 for the entries below, preserving their order.
1. CCOc1ccccc1C(=O)/C=C/c1cc2ccccc2[nH]c1=O
2. COc1ccc2[nH]c(=O)c(/C=C/C(=O)c3ccccc3OC)cc2c1
3. COc1ccccc1C(=O)/C=C/c1cc2cc(C)ccc2[nH]c1=O

1. 13
2. 90
3. 307

Each of the following entries comes with a recorded value; kindly state GI50 for each.
1. CCOc1ccccc1C(=O)/C=C/c1cc2cc(OC)ccc2[nH]c1=O
2. COc1ccc2cc(/C=C/C(=O)c3ccccc3OC)c(=O)[nH]c2c1
3. CC(=O)O[C@H]1C(=O)[C@@]2(C)[C@H]([C@H](OC(=O)c3ccccc3)[C@]3(O)C[C@H](OC(=O)[C@H](O)[C@@H](NC(=O)c4ccccc4)c4ccccc4)C(C)=C1C3(C)C)[C@]1(OC(C)=O)CO[C@@H]1C[C@@H]2O [Tax, paclitaxel, reference compound]

1. 23
2. 4720
3. 4

Please look at the items below and tell me GI50 for each one, in order.
1. COc1ccccc1C(=O)/C=C/c1cc2cccc(OC)c2[nH]c1=O
2. COC(=O)Nc1nc2ccc(C(=O)c3cccs3)cc2[nH]1 [Noco, Nocodazole, reference compound]

7
18
